# subject-of-test: Inward rectifier potassium channel 2 (Mus musculus) (UniProt P35561)
# Sequence (P35561 whole entry, looked up): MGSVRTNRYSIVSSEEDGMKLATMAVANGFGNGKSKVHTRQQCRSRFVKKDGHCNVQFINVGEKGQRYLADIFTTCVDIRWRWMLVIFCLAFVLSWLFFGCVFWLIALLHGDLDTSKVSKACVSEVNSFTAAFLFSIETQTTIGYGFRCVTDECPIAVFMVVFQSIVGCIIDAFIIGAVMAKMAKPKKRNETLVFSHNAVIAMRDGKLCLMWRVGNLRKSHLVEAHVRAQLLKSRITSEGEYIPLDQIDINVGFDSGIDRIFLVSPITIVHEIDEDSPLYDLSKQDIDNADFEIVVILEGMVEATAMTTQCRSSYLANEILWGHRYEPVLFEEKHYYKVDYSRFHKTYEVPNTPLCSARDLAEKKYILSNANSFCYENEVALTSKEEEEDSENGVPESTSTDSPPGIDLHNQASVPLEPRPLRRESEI
# assay-details: Kir2.1 channel inhibition, specificity check, SAR follow-up, selectivity assay for KCNK9 inhibitor project, cell-based, FluxOR thallium flux, CRC round 4 (AID 623881)
# measurement-context: Kir2.1-expressing cells, FluxOR thallium flux fluorescence
pIC50: −log10 of the molar value.
property-label: pIC50

Answered examples (3):
IN: Give its pIC50 value. Item: CC(C1CC2CCC1C2)n1c(SCCc2cccc(O)c2)nnc1-c1ccco1 (stereo not given)
OUT: 4.94

IN: // query pIC50 value for entry COc1ccc(CSc2nnc(-c3ccco3)n2C(C)C2CC3CCC2C3)cc1OC (stereo not given)
OUT: 4.73

IN: Quick check: pIC50 of CC(C1C[C@H]2CCC1C2)n1c(-c2ccsc2)n[nH]c1=S (stereo not given in full) ?
OUT: 4.64

P: CC(C1CC2CCC1C2)n1c(SCCc2ccccn2)nnc1-c1ccco1 (stereo not given)
Q: COc1cccc(CCSc2nnc(-c3ccco3)n2C(C)C2CC3CCC2C3)c1 (stereo not given)
IN: Could you please tell me which of these two has the higher pIC50: P or Q ? // output: label of the selected item
OUT: Q
(Q: 5.04, P: 4.81)
